Data provenance is paper PMC4961704.

molecular target: hCB2 (Homo sapiens, UniProt P34972); construct: purchased PerkinElmer; host or cells: CHO-K1 cells stably transfected; experiment: Competitive in vitro binding assay with [3H]CP-55,940, membranes of CHO-K1 cells stably transfected with hCB2; conditions: displacement of [3H]CP-55,940 (1.4 nM), 30°C, 90 min; three independent experiments in triplicate; Cheng-Prusoff
Sequence (P34972 whole entry): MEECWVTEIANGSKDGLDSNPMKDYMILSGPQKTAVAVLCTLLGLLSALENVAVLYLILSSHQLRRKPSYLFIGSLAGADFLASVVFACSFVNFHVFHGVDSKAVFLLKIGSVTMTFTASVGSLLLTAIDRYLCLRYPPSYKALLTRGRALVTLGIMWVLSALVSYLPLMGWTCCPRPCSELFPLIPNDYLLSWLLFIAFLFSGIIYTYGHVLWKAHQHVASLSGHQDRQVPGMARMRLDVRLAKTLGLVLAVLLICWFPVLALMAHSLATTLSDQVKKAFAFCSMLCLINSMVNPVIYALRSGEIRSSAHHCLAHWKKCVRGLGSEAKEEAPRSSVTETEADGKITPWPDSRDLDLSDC
experimental.readout: Ki
Put your answer as a value accompanied by its unit after it.

## Input Which measured Ki value corresponds to CCCc1c(C)sc(NC(=O)C23CC4CC(CC(C4)C2)C3)c1C(=O)OC ?
## Output 4.3 nM
